measured target: ABCG2 (Homo sapiens)
method description: Ratio of IC50 for human ABCG2 expressed in baculovirus infected Sf9 cell membrane assessed as inhibition of vanadate sensitive quercetin-stimulated ATPase activity to IC50 for human ABCG2 expressed in baculovirus infected Sf9 cell membrane assessed as inhibition of vanadate sensitive basal ATPase activity
assay setup: read-out: Ratio IC50
attribute measured: selectivity ratio

compound: O=C(c1ccccc1)N1CCc2c([nH]c3ccccc23)C1c1ccc(Cl)c(Cl)c1 (configuration not stated)
value: 8.4
--
compound: O=C(c1ccccc1)N1CCc2c([nH]c3ccccc23)C1c1ccc(Br)cc1 (configuration not stated)
value: 7.7
--
compound: O=C(c1ccccc1)N1CCc2c([nH]c3ccccc23)C1c1ccc(Cl)cc1 (configuration not stated)
value: 9.3
--
compound: COc1ccc(C(=O)N2CCc3c([nH]c4ccccc34)C2c2ccc(Cl)c(Cl)c2)cc1 (configuration not stated)
value: 11
--
compound: COc1cccc(C(=O)N2CCc3c([nH]c4ccccc34)C2c2ccc(Cl)c(Cl)c2)c1 (configuration not stated)
value: 7
--
compound: O=C(c1ccccc1)N1CCc2c([nH]c3ccccc23)C1c1ccccc1 (configuration not stated)
value: 10.3
--
compound: COc1ccc2[nH]c3c(c2c1)CCN(C(=O)c1ccccc1)C3c1ccc(Cl)c(Cl)c1 (configuration not stated)
value: 10.4

====

method description: Ratio of GI50 for wild-type MDCK2 cells to IC50 for human ABCG2 expressed in MDCK2 cells

molecule: O=C(c1ccccc1)N1CCc2c([nH]c3ccccc23)C1c1ccc(Cl)c(Cl)c1 (stereo unspecified)
Ratio: <=20
//
molecule: COc1cccc(C(=O)N2CCc3c([nH]c4ccccc34)C2c2ccc(Cl)c(Cl)c2)c1 (stereo unspecified)
Ratio: <=20
//
molecule: O=C(c1ccccc1)N1CCc2c([nH]c3ccccc23)C1c1ccc(Br)cc1 (stereo unspecified)
Ratio: 20 - 30
//
molecule: O=C(c1ccccc1)N1CCc2c([nH]c3ccccc23)C1c1ccc(Cl)cc1 (stereo unspecified)
Ratio: 20 - 30
//
molecule: COc1ccc(C(=O)N2CCc3c([nH]c4ccccc34)C2c2ccc(Cl)c(Cl)c2)cc1 (stereo unspecified)
Ratio: <=20
//
molecule: COc1ccc2[nH]c3c(c2c1)CCN(C(=O)c1ccccc1)C3c1ccc(Cl)c(Cl)c1 (stereo unspecified)
Ratio: <=20

====

Recorded measurements of inhibition at 1 h, 10 µM, one per entry
measured target: ABCB1 (Homo sapiens, UniProt P08183)
Sequence (P08183 whole entry): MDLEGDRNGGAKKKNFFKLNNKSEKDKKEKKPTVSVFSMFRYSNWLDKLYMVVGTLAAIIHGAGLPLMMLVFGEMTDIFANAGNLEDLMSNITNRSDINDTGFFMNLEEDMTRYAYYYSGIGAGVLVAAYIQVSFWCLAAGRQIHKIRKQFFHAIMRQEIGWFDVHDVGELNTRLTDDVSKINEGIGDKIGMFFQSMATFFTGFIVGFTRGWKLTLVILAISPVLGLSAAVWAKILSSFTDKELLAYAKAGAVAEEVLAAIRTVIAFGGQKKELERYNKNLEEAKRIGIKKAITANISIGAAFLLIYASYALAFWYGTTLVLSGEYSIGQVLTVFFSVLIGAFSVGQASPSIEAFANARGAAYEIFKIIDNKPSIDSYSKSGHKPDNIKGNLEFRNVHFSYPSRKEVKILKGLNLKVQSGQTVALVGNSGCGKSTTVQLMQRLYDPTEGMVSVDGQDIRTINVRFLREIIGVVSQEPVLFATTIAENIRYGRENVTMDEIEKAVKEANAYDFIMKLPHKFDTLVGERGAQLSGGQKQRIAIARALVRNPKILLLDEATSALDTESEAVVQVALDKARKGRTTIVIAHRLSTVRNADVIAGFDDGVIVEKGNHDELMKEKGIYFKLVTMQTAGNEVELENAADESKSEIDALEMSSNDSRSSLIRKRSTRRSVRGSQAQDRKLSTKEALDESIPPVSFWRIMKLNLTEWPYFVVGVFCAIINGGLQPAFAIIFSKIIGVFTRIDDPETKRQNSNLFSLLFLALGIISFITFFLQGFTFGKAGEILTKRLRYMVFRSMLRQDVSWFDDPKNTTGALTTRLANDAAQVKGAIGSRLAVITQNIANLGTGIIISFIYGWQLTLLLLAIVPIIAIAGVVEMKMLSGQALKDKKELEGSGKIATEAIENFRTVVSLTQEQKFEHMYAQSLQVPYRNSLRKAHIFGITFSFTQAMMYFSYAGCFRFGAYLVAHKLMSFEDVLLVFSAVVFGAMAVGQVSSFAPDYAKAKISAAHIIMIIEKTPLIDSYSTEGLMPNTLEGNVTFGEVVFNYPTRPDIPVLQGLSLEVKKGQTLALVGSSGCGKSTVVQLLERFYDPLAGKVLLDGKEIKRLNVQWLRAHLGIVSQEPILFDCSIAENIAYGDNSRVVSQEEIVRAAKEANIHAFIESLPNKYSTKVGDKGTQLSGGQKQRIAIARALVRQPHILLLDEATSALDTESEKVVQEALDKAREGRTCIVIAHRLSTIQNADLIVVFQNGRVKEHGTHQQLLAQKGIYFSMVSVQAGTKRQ
method description: Inhibition of ABCB1 in human A2780/ADR cells assessed as reduction in calcein AM efflux at 10 uM pre-incubated for 30 mins before calcein AM addition and measured for 60 mins by microplate reader analysis relative to control
Assay type: cell-based
assay setup: probe calcein AM
attribute measured: inhibition at 1 h, 10 µM

compound: O=C(c1ccc(Cl)cc1)N1CCc2c([nH]c3ccccc23)C1c1ccc(Br)cc1 (stereo not given)
attribute measured: inhibition at 1 h, 10 µM
value: < 25%
//
compound: CC(C)CC1c2[nH]c3ccccc3c2CCN1C(=O)c1ccccc1 (stereo not given)
attribute measured: inhibition at 1 h, 10 µM
value: > 25%
//
compound: Clc1ccc(C2c3[nH]c4ccccc4c3CCN2Cc2ccccc2)cc1Cl (stereo not given)
attribute measured: inhibition at 1 h, 10 µM
value: < 25%
//
compound: O=C(c1ccccc1)N1CCc2c([nH]c3ccccc23)C1c1cccc([N+](=O)[O-])c1 (stereo not given)
attribute measured: inhibition at 1 h, 10 µM
value: < 25%
//
compound: O=C(c1cccc2ccccc12)N1CCc2c([nH]c3ccccc23)C1c1ccc(Cl)c(Cl)c1 (stereo not given)
attribute measured: inhibition at 1 h, 10 µM
value: < 25%

====

measured target: ABCB1 (Homo sapiens, UniProt P08183)
method description: Inhibition of ABCB1 in human A2780/ADR cells assessed as reduction in calcein AM efflux at 10 uM pre-incubated for 30 mins before calcein AM addition and measured for 60 mins by microplate reader analysis relative to control
Type: cell-based
assay setup: probe calcein AM

compound: O=C(c1ccccc1)N1CCc2c([nH]c3ccccc23)C1c1ccc(Br)cc1 (stereo not given)
measured target: ABCB1 (Homo sapiens, UniProt P08183)
inhibition at 1 h, 10 µM: < 25%
--
compound: COc1ccc(C(=O)N2CCc3c([nH]c4ccccc34)C2c2ccc(Cl)c(Cl)c2)cc1 (stereo not given)
measured target: ABCB1 (Homo sapiens, UniProt P08183)
inhibition at 1 h, 10 µM: < 25%
--
compound: O=C(c1ccccc1)N1CCc2c([nH]c3ccccc23)C1c1ccccc1Br (stereo not given)
measured target: ABCB1 (Homo sapiens, UniProt P08183)
inhibition at 1 h, 10 µM: < 25%
--
compound: COc1ccc(C2c3[nH]c4ccccc4c3CCN2C(=O)c2ccccc2)cc1OC (stereo not given)
measured target: ABCB1 (Homo sapiens, UniProt P08183)
inhibition at 1 h, 10 µM: > 25%
--
compound: O=C(c1ccccc1)N1CCc2c([nH]c3ccccc23)C1c1ccc(F)c(F)c1 (stereo not given)
measured target: ABCB1 (Homo sapiens, UniProt P08183)
inhibition at 1 h, 10 µM: > 25%
--
compound: O=C(c1ccc(Cl)cc1)N1CCc2c([nH]c3ccccc23)C1c1ccc(F)c(F)c1 (stereo not given)
measured target: ABCB1 (Homo sapiens, UniProt P08183)
inhibition at 1 h, 10 µM: > 25%
--
compound: COc1ccc2[nH]c3c(c2c1)CCN(C(=O)c1ccccc1)C3c1ccc(Cl)c(Cl)c1 (stereo not given)
measured target: ABCB1 (Homo sapiens, UniProt P08183)
inhibition at 1 h, 10 µM: < 25%
--
compound: COc1ccc(C(=O)N2CCc3c([nH]c4ccccc34)C2c2cccc(OC)c2)cc1 (stereo not given)
measured target: ABCB1 (Homo sapiens, UniProt P08183)
inhibition at 1 h, 10 µM: > 25%
--
compound: COc1ccc(C2c3[nH]c4ccccc4c3CCN2C(=O)c2ccccc2)cc1 (stereo not given)
measured target: ABCB1 (Homo sapiens, UniProt P08183)
inhibition at 1 h, 10 µM: > 25%
--
compound: COc1ccc(C(=O)N2CCc3c([nH]c4ccccc34)C2c2ccc(C(F)(F)F)cc2)cc1 (stereo not given)
measured target: ABCB1 (Homo sapiens, UniProt P08183)
inhibition at 1 h, 10 µM: < 25%

====

method description: Cytotoxicity against MDCK2 cells expressing human ABCG2 assessed as reduction in cell viability after 72 hrs by MTT assay
Type: ADME, cell-based, Canis lupus familiaris
assay setup: dog, MDCK2 (MDCK-II) cells expressing human ABCG2
attribute measured: GI50 at 72 h (µM)

molecule: COc1ccc2[nH]c3c(c2c1)CCN(C(=O)c1ccccc1)C3c1ccc(Cl)c(Cl)c1 (stereo not drawn)
attribute measured: GI50 at 72 h
unit abbrev: µM
value: 4.17
//
molecule: O=C(c1ccccc1)N1CCc2c([nH]c3ccccc23)C1c1ccc(Cl)c(Cl)c1 (stereo not drawn)
attribute measured: GI50 at 72 h
unit abbrev: µM
value: 6.95
//
molecule: COc1ccc(C(=O)N2CCc3c([nH]c4ccccc34)C2c2ccc(Cl)c(Cl)c2)cc1 (stereo not drawn)
attribute measured: GI50 at 72 h
unit abbrev: µM
value: 4.67
//
molecule: O=C(c1ccccc1)N1CCc2c([nH]c3ccccc23)C1c1ccc(Cl)cc1 (stereo not drawn)
attribute measured: GI50 at 72 h
unit abbrev: µM
value: 18.1
//
molecule: O=C(c1ccccc1)N1CCc2c([nH]c3ccccc23)C1c1ccc(Br)cc1 (stereo not drawn)
attribute measured: GI50 at 72 h
unit abbrev: µM
value: 20.6
//
molecule: O=C(c1ccccc1)N1CCc2c([nH]c3ccccc23)C1c1ccccc1 (stereo not drawn)
attribute measured: GI50 at 72 h
unit abbrev: µM
value: 12.9
//
molecule: COc1ccc2c(c1)[nH]c1c(C)nccc12
attribute measured: GI50 at 72 h
unit abbrev: µM
value: 2.42
//
molecule: COc1cccc(C(=O)N2CCc3c([nH]c4ccccc34)C2c2ccc(Cl)c(Cl)c2)c1 (stereo not drawn)
attribute measured: GI50 at 72 h
unit abbrev: µM
value: 5.82

====

Overview of reported IC50 across a group of compounds:
measured target: Broad substrate specificity ATP-binding cassette transporter ABCG2 (Homo sapiens)
Sequence (Q9UNQ0 whole entry): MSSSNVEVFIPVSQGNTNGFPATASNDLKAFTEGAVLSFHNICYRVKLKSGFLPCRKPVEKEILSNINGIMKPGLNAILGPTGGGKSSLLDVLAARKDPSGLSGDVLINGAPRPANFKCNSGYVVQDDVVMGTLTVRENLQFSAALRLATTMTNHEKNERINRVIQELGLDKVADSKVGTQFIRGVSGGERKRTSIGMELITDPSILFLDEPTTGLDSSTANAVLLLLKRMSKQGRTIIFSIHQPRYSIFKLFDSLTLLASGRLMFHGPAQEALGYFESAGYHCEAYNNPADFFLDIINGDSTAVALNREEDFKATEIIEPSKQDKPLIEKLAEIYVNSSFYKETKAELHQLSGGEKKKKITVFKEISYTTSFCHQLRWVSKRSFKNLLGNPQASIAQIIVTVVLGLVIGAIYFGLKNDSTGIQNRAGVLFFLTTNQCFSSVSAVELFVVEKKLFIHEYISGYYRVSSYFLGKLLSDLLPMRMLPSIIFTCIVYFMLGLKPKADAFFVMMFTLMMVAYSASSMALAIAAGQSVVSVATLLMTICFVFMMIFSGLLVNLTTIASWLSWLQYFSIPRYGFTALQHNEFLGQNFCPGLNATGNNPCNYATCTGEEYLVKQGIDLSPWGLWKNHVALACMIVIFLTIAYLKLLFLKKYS
method description: Inhibition of human ABCG2 expressed in MDCK2 cells assessed as reduction in pheophorbide A efflux pre-incubated for 30 mins before pheophorbide A addition and measured for 120 mins by flow cytometry
assay setup: read-out: IC50
attribute measured: IC50 (nM)

compound: O=C(c1ccccc1)N1CCc2c([nH]c3ccccc23)C1c1ccc(F)c(F)c1 (stereo unspecified)
value: 1800
//
compound: O=C(c1ccccc1)N1CCc2c([nH]c3ccccc23)C1c1ccc(Cl)c(Cl)c1 (stereo unspecified)
value: 365
//
compound: COc1ccc(C(=O)N2CCc3c([nH]c4ccccc34)C2c2ccc(Cl)c(Cl)c2)cc1 (stereo unspecified)
value: 237
//
compound: O=C(c1ccccc1)N1CCc2c([nH]c3ccccc23)C1c1ccc(Cl)cc1 (stereo unspecified)
value: 784
//
compound: O=C(c1ccccc1)N1CCc2c([nH]c3ccccc23)C1c1cccc(Cl)c1 (stereo unspecified)
value: 811
//
compound: COc1cccc(C(=O)N2CCc3c([nH]c4ccccc34)C2c2ccc(Cl)c(Cl)c2)c1 (stereo unspecified)
value: 206
